Tested system: T1, human CD30 (commercial, conjugated to digoxigenin) (human, UniProt P28908 19-379, limits assumed, conjugated to digoxigenin (DIG))
T1 sequence (looked up): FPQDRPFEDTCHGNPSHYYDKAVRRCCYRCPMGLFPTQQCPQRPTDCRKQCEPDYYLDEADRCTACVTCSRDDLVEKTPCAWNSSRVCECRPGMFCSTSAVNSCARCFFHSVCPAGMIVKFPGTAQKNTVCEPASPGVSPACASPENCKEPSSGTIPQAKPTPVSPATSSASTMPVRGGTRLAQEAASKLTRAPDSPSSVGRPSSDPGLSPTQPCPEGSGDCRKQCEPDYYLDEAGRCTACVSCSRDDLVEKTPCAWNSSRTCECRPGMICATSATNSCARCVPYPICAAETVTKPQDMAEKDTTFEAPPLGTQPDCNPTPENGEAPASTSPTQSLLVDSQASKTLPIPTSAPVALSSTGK
Measurement description: AlphaScreen competition
For each of the binders below, state its Fold IC50 vs H3/L3.
For clarity, give the value followed by its unit.

Fold IC50 vs H3/L3 reported for this binder AC10 H3/L3.6 (antibody, IgG1, name in Kabat numbering, V domains shown) VH: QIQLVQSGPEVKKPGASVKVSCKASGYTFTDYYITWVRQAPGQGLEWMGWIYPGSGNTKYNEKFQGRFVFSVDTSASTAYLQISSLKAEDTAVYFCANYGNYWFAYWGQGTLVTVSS VL: DIVMTQSPDSLAVSLGERATINCKASQSVDFDGDSYMNWYQQKPGQPPKVLIYAASNLESGIPARFSGSGSGTDFTLTINSLEAEDAATYYCQQSNEDPWTFGGGTKVEIK : 1.64 fold

Fold IC50 vs H3/L3 reported for this binder AC10 H3/L3.21 (antibody, IgG1, name in Kabat numbering, V domains shown) VH: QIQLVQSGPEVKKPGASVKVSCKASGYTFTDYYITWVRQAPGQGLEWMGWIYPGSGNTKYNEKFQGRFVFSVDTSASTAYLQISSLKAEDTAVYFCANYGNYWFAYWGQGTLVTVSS VL: DIVLTQSPDSLAVSLGERATINCKASQSVDFDGDDYMNWYQQKPGQPPKVLIYAASNLESGIPARFSGSGSGTDFTLTINSLEAEDAATYYCQQSNEDPWTFGGGTKVEIK : 0.81 fold

Fold IC50 vs H3/L3 reported for this binder AC10 H3/L3.50 (antibody, IgG1, name in Kabat numbering, V domains shown) VH: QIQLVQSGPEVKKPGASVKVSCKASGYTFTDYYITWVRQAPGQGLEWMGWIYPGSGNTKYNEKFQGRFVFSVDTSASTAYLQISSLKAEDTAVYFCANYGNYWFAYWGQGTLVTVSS VL: DIVLTQSPDSLAVSLGERATINCKASQSVDFDGDSYMNWYQQKPGQPPKVLIYAASNLESGIPARFSGSGSGTDFTLTINSLEAEDAATYYCQQLNEDPWTFGGGTKVEIK : 0.02 fold

Fold IC50 vs H3/L3 reported for this binder AC10 H3/L3.12 (antibody, IgG1, name in Kabat numbering, V domains shown) VH: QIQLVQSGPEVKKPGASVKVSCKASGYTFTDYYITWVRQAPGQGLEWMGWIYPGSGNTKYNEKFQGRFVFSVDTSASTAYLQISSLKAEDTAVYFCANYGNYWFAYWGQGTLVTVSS VL: DIVLTQSPDSLAVSLGERATINCKASQSVVFDGDSYMNWYQQKPGQPPKVLIYAASNLESGIPARFSGSGSGTDFTLTINSLEAEDAATYYCQQSNEDPWTFGGGTKVEIK : 1.15 fold

Fold IC50 vs H3/L3 reported for this binder AC10 H3/L3.39 (antibody, IgG1, name in Kabat numbering, V domains shown) VH: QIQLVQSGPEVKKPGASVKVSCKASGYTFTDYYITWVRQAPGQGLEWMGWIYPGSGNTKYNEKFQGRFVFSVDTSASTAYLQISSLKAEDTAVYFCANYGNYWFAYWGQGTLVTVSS VL: DIVLTQSPDSLAVSLGERATINCKASQSVDFDGDSYMNWYQQKPGQPPKVLIYAASNLASGIPARFSGSGSGTDFTLTINSLEAEDAATYYCQQSNEDPWTFGGGTKVEIK : 0.85 fold
